Measured values drawn from patent US20250341517A1 for this set.

Target: T1, Anti-hCG antibody(m)
T1 construct: also called mouse IgG (hCG)
Assay: labelled peptide on antibody immobilised on microplate; antigen hCG
Ends that are not written are not given here. FAM = carboxyfluorescein (FAM) fluorescent label
Please respond with reported fluorescence intensity in solution (S) after antigen binding for every item in the list.

binder	reported_measurement
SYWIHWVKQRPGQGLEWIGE (not fully specified (N-terminus), Synthetic 20-mer homologous to the FR2 region of the heavy chain; The fluorescent label differs between experiments; also called H1 switching peptide; third peptide compound H1) [H1 peptide]	3920

Please look at the items below and tell me fluorescence intensity in solution (S) after antigen binding for each one, in order.
1. {FAM}-VYYCFQGSHVPFTK (Synthetic 14-mer homologous to the FR3 or FR4 region of the light chain; also called L2 switching peptide; second peptide compound L2) [L2 peptide]
2. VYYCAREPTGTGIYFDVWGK (not fully specified (N-terminus), Synthetic 20-mer homologous to the FR3 or FR4 region of the heavy chain; The label differs between experiments; also called H2 switching peptide; fourth peptide compound H2) [H2 peptide]
3. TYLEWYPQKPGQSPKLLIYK (not fully specified (N-terminus), Synthetic 20-mer homologous to the FR2 region of the light chain; The label differs between experiments; also called L1 switching peptide; first peptide compound L1) [L1 peptide]

output:
1. 9400
2. 8540
3. 3580
